Where a name gives a salt, the structure may show the parent alone.
Observed property: melting point

Example entries and their recorded answers appear below.
Cc1ccc(N2C[C@@H]3CC2CN3c2nc(-c3ccncc3)cc(=O)n2C)cc1    123 to 125 °C
Cn1c(N2CC3C[C@H]2CN3)nc(-c2ccncn2)cc1=O (as salt: hydrochloride)    275 to 277 °C
Cn1c(N2CC3C[C@H]2CN3C(=O)c2ccc(Br)cc2)nc(-c2ccncn2)cc1=O    142 to 144 °C

Pending molecule:
What the record says about Cn1c(N2CC3C[C@H]2CN3)nc(-c2ccncc2)cc1=O (as salt: hydrochloride) : melting point is 240 to 242 °C
